target: T1, Claudin 18.2 (CLDN18.2), expressed on CHOS-CLDN 18.2 / HEK293-CLDN 18.2 / HCC827-CLDN 18.2 cells (human, UniProt P56856-2 1-261); test: FACS, CHOS-CLDN18.2 cells, 1.250 µg/ml
T1 construct: whole, on cells; The species is not repeated for the CHOS-CLDN 18.2 cells; also called claudin-18A2
value.type: FACS reading
When you answer, write just the number.

q: Endpoint output: FACS reading of QP14641461 (antibody, human IgG1, kappa, V domains shown, Humanized from QP207208) VH: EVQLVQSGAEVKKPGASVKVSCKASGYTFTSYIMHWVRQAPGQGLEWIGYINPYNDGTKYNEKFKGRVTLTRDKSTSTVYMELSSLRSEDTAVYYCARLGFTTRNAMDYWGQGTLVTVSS VL: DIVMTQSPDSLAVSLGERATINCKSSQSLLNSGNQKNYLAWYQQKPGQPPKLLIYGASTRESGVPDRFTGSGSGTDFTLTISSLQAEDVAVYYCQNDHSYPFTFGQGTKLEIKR . Value?
a: 160000
